Assay: Binding affinity towards Opioid receptor mu 1
readout: Ki (nM)

1) Cc1cc(O)cc(C)c1[C@@H](C)CC(=O)N[C@H]1CSSC[C@H](C(N)=O)NC(=O)[C@H](Cc2ccc([N+](=O)[O-])cc2)NC(=O)CNC1=O: 2.1

---

Experiment: Binding affinity towards Kappa opioid receptor
Here, each record is paired with measured Ki data.
readout: Ki (nM)

1) Cc1cc(O)cc(C)c1[C@@H](C)CC(=O)N[C@H]1CSSC[C@H](C(N)=O)NC(=O)[C@H](Cc2ccc([N+](=O)[O-])cc2)NC(=O)CNC1=O: 49.5
2) Cc1cc(O)cc(C)c1CCC(=O)N[C@H]1CSSC[C@H](C(N)=O)NC(=O)[C@H](Cc2ccc([N+](=O)[O-])cc2)NC(=O)CNC1=O: 299
3) Cc1cc(O)cc(C)c1[C@H](C)CC(=O)N[C@H]1CSSC[C@H](C(N)=O)NC(=O)[C@H](Cc2ccc([N+](=O)[O-])cc2)NC(=O)CNC1=O: 6970
4) Cc1cc(O)cc(C)c1C[C@H](N)C(=O)N[C@@H]1CSSC[C@H](C(N)=O)NC(=O)[C@H](Cc2ccc([N+](=O)[O-])cc2)NC(=O)CNC1=O: 3.77
